Ref: the supplement of paper PMC12317010

Test: collision cross section in nitrogen (drift tube, single-field); higher = larger gas-phase ion size;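 also: chemical standards at 10 µM analysed by drift tube IMS-QTOF MS in about 3.95 torr nitrogen, mean of duplicate injections differing ≤1%, mass error below 10 ppm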
Settings: ion source: APCI; ion mode: Positive; ion type: [M]+ (permanent cation)
ENDPOINT_NAME: collision cross section in nitrogen (Å²)

Worked cases, answers included:
1) Cn1c(-c2ccccc2)cc(-c2ccccc2)[n+]1C [Difenzoquat metilsulfate] ... 160
2) CCCCCCCCCCCCCCCCCC[N+](C)(C)C [N,N,N-Trimethyloctadecan-1-aminium chloride] ... 200.2
3) CCCCCCCC[N+](C)(CCCCCCCC)CCCCCCCC [Methyltrioctylammonium chloride] ... 222.2
4) CCCCCCCCCCCCCC[N+](C)(C)C [Myristyltrimethylammonium chloride] ... 185.2
5) CCCCCCCCCCCCCCCC[n+]1ccccc1 [Cetylpyridinium bromide] ... 193.4
6) Cc1ncc(C[n+]2csc(CCO)c2C)c(N)n1 [Thiamine nitrate] ... 161.5

a = CCCCCCCCCCCCCCCC[N+](C)(C)CC
b = CCCC[N+]1(C)CCCC1 [1-Butyl-1-methylpyrrolidinium chloride]
Problem: Between a and b , which one shows the larger collision cross section in nitrogen value? // respond with label for picked entry
Result: a
(a: 196.1 Å², b: 131.2 Å²)

###

Experiment: collision cross section in nitrogen (drift tube, single-field); higher = larger gas-phase ion size
Conditions: ion type: [M+Na]; ion source: ESI; ion mode: Positive
ENDPOINT_NAME: collision cross section in nitrogen (Å²)

1) Cc1cc(C)cc(OCC2CNC(=O)O2)c1 (centres undefined) ... 152.3
2) CCCCC(CC)COC(=O)CCCCCCCC(=O)OCC(CC)CCCC (centres undefined) [Bis(2-ethylhexyl) nonanedioate] ... 222.3

a = COC(=O)[C@@H](C)Oc1ccc(Oc2ncc(C(F)(F)F)cc2Cl)cc1
b = CC(C)(C)c1cc(CCC(=O)OCC(COC(=O)CCc2cc(C(C)(C)C)c(O)c(C(C)(C)C)c2)(COC(=O)CCc2cc(C(C)(C)C)c(O)c(C(C)(C)C)c2)COC(=O)CCc2cc(C(C)(C)C)c(O)c(C(C)(C)C)c2)cc(C(C)(C)C)c1O
Problem: Between a and b , which one shows the larger collision cross section in nitrogen value? // respond with label for picked entry
Result: b
(b: 354.9 Å², a: 186.4 Å²)

###

Test: collision cross section in nitrogen (drift tube, single-field); higher = larger gas-phase ion size
Conditions: ion type: [M+Na]; ion source: ESI; ion mode: Positive
ENDPOINT_NAME: collision cross section in nitrogen (Å²)

1) CCOC(=O)CC(SP(=S)(OC)OC)C(=O)OCC (stereo not drawn) ... 172.2

a = CCC(C)OC(=O)N1CCCCC1CCO (stereo not drawn)
b = CCn1nc(Cc2ccccc2)cc1C1CCN(C[C@H]2C[C@H](N(C)[C@@H](C(=O)O)C(C)C)C[C@@H]2c2cccc(F)c2)CC1
Problem: Between a and b , which one shows the larger collision cross section in nitrogen value? // respond with label for picked entry
Result: b
(b: 241.9 Å², a: 166.5 Å²)

###

Experiment: collision cross section in nitrogen (drift tube, single-field); higher = larger gas-phase ion size
Conditions: ion type: [M+Na]; ion source: ESI; ion mode: Positive
ENDPOINT_NAME: collision cross section in nitrogen (Å²)

1. Cc1cc(C2(c3ccc(O)c(C)c3)C(=O)Nc3ccccc32)ccc1O [1,3-Dihydro-3,3-bis(4-hydroxy-m-tolyl)-2H-indol-2-one] ... 196.6
2. COc1cc(CCC(=O)CC(=O)CCc2ccc(O)c(OC)c2)ccc1O [Tetrahydrocurcumin] ... 181.2
3. CNC(=O)Oc1c(C(C)(C)C)cc(C)cc1C(C)(C)C [Terbucarb] ... 176.8
4. CC1(C)O[C@@H]2[C@@H](CO[C@@]3(COS(N)(=O)=O)OC(C)(C)O[C@@H]23)O1 [Topiramate] ... 171.7
5. CC(=O)CC(c1ccccc1)c1c(O)c2ccccc2oc1=O (stereo not drawn) [Sodium warfarin] ... 178.6
6. Nc1ccc(S(=O)(=O)c2ccc(N)cc2)cc1 [Dapsone] ... 170.7
7. CO/N=C(/C(=O)OC)c1ccccc1CO/N=C(\C)c1cccc(C(F)(F)F)c1 [Trifloxystrobin] ... 193
8. C=C(C)C(=O)OCCOCCOC(=O)C(=C)C [Di(ethylene glycol) dimethacrylate] ... 159.5

###

Experiment: collision cross section in nitrogen (drift tube, single-field); higher = larger gas-phase ion size
Conditions: ion type: [M+H]; ion source: ESI; ion mode: Positive
Counter-ions that a name gives are not always drawn.
ENDPOINT_NAME: collision cross section in nitrogen (Å²)

1) O=S1(=O)OC(c2ccc(O)cc2)(c2ccc(O)cc2)c2ccccc21 [Phenol Red sodium salt] ... 179.8

A = CCC(=O)Nc1cccc(N)c1 [N-(3-Aminophenyl)propanamide]
B = CC1=NN(c2cc(S(=O)(=O)O)ccc2Cl)C(=O)C1/N=N/c1ccccc1 (centres undefined) [C.I. Acid Yellow 34, monosodium salt]
Problem: Between A and B , which one shows the larger collision cross section in nitrogen value? // respond with label for picked entry
Result: B
(B: 196.9 Å², A: 136.5 Å²)

###

Experiment: collision cross section in nitrogen (drift tube, single-field); higher = larger gas-phase ion size
Conditions: ion type: [M-H]; ion source: ESI; ion mode: Negative
Where a name gives a salt, the structure may show the parent alone.
ENDPOINT_NAME: collision cross section in nitrogen (Å²)

Worked cases, answers included:
1. O=S(=O)(O)c1cccc2c(S(=O)(=O)O)cccc12 [1,5-Naphthalenedisulfonic acid, disodium salt hydrate] ... 156.3
2. O=C(O)c1ccccc1C(=O)O [Monopotassium phthalate] ... 127.6
3. CCOP(=S)(S)OCC [Ammonium diethyl dithiophosphate] ... 134.4

P = CCCCC(CC)COS(=O)(=O)O (centres undefined) [Sodium ethasulfate hydrate]
Q = N=C(NCCCCCCNC(=N)NC(=N)Nc1ccc(Cl)cc1)NC(=N)Nc1ccc(Cl)cc1 [Chlorhexidine dihydrochloride]
Problem: Given the two records P and Q , choose the one whose collision cross section in nitrogen value is lower. // respond with label for picked entry
Result: P
(P: 150.1 Å², Q: 233.2 Å²)

###

Test: collision cross section in nitrogen (drift tube, single-field); higher = larger gas-phase ion size
Details: ion type: [M+H]; ion source: ESI; ion mode: Positive
Counter-ions that a name gives are not always drawn.
ENDPOINT_NAME: collision cross section in nitrogen (Å²)

Worked cases, answers included:
1) CN(C)c1ccc(C(=N)c2ccc(N(C)C)cc2)cc1 [Auramine hydrochloride] ... 169.8
2) O=C(N[C@@H](c1ccccc1)[C@@H]1CCCCN1)c1cccc(C(F)(F)F)c1Cl ... 190.4
3) CC1=C(C(=O)Nc2ccccc2)SCCO1 ... 153
4) CCOC(=O)c1sc(N)nc1C(F)(F)F [Ethyl 2-amino-4-(trifluoromethyl)-1,3-thiazole-5-carboxylate] ... 146.4
5) Cc1cc(C2(c3ccc(O)c(C)c3)C(=O)Nc3ccccc32)ccc1O [1,3-Dihydro-3,3-bis(4-hydroxy-m-tolyl)-2H-indol-2-one] ... 185.4
6) c1ccc(CN(Cc2ccccc2)Cc2ccccc2)cc1 ... 169.2

A = CC(C)(C)NC(=O)[C@H]1CC[C@H]2[C@@H]3CC[C@H]4NC(=O)C=C[C@]4(C)[C@H]3CC[C@]12C [Finasteride]
B = CCN(CC)c1ccc(C=O)cc1
Problem: Between A and B , which one shows the larger collision cross section in nitrogen value? // respond with label for picked entry
Result: A

###

Experiment: collision cross section in nitrogen (drift tube, single-field); higher = larger gas-phase ion size
Conditions: ion source: ESI; ion mode: Positive; ion type: [M]+ (permanent cation)
ENDPOINT_NAME: collision cross section in nitrogen (Å²)

1. CCCCCCCCCCCCCC[P+](CCCC)(CCCC)CCCC [Tributyltetradecylphosphonium chloride] ... 224.5
2. CCCCCCCCCCCC[N+](C)(C)CC(=O)O ... 183.8
3. CCCC[n+]1ccccc1 [N-Butylpyridinium chloride] ... 127.7
4. CCCCn1cc[n+](C)c1 [1-Butyl-3-methylimidazolium chloride] ... 128.9
5. CCNc1cc2[o+]c3cc(NCC)c(C)cc3c(-c3ccccc3C(=O)OCC)c2cc1C ... 218.9
6. CC(C)[N+](C)(CCOC(=O)C1c2ccccc2Oc2ccccc21)C(C)C [Propantheline bromide] ... 184.1

I = CCCCCCCCCCCCCC[n+]1ccccc1 [Tetradecylpyridinium bromide]
II = C[N+](C)(C)CCO [Choline hydroxide]
Problem: Given the two records I and II , choose the one whose collision cross section in nitrogen value is lower. // respond with label for picked entry
Result: II

###

Test: collision cross section in nitrogen (drift tube, single-field); higher = larger gas-phase ion size
Conditions: ion type: [M+Na]; ion source: ESI; ion mode: Positive
Where a name gives a salt, the structure may show the parent alone.
ENDPOINT_NAME: collision cross section in nitrogen (Å²)

1) CC(C)(C)NC(=O)[C@@H]1CN(Cc2cccnc2)CCN1C[C@@H](O)C[C@@H](Cc1ccccc1)C(=O)N[C@H]1c2ccccc2C[C@H]1O [Indinavir sulfate] ... 246.1
2) CCCCC(CC)COC(=O)CCCCC(=O)OCc1ccccc1 (stereo unspecified) [Benzyloctyl adipate] ... 191.9
3) CC1(C)C(C(=O)OC(C#N)c2cccc(Oc3ccccc3)c2)C1(C)C (stereo unspecified) ... 186
4) Cc1cnc(C2=NC(=O)C(C)(C(C)C)N2)c(C(=O)O)c1 (stereo unspecified) ... 178.8
5) C=C[C@@]1(C)CC(=O)[C@]2(O)[C@@]3(C)[C@@H](O)CCC(C)(C)[C@@H]3[C@H](O)[C@H](OC(C)=O)[C@@]2(C)O1 ... 194.3
6) O=c1n(CCCN2CCN(c3cccc(Cl)c3)CC2)nc2ccccn12 [Trazodone hydrochloride] ... 195.7
7) CCN(CC)C(=O)C(C)Oc1cccc2ccccc12 (stereo unspecified) [Napropamide] ... 172
8) CCCc1c(OCCCCc2nnn[nH]2)ccc(C(C)=O)c1O ... 177.6
9) CC(C)(C)c1cc(/C=C2\SC(=N)NC2=O)cc(C(C)(C)C)c1O [Darbufelone mesylate] ... 207.3
10) C[C@H]1C(=O)O[C@@H]2CCN3CC=C(COC(=O)[C@](C)(O)[C@]1(C)O)[C@H]23 ... 178.6

I = CC(=O)CC(c1ccccc1)c1c(O)c2ccccc2oc1=O (stereo unspecified)
II = Cc1occc1C(=O)Nc1ccc(C(=O)N2CCC(F)(F)/C(=C\C(=O)N3CCC(N4CCCCC4)CC3)c3ccccc32)cc1
Problem: Between I and II , which one shows the larger collision cross section in nitrogen value? // respond with label for picked entry
Result: II
